# TARGET DESC: T1, human ORL1 receptor (human, UniProt P41146 1-370)
# T1 construct: whole, on cells; also called hORL1 receptor; human nociceptin receptor
# T1 sequence (P41146 whole entry): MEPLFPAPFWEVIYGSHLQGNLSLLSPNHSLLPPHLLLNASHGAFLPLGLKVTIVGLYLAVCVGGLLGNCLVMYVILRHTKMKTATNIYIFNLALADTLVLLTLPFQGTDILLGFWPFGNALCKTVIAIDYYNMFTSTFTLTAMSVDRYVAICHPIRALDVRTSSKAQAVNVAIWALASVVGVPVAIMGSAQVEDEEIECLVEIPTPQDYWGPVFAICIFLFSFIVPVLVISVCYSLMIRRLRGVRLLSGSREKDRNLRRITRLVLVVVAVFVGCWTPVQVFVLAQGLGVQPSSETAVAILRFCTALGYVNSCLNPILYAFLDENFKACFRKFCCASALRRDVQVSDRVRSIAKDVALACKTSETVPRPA
# PROTOCOL SUMMARY: displacement of [3H]-labeled nociceptin, HEK293 cells transfected with the human ORL1 receptor
OBSERVATION TYPE: Ki

Task item: Check the records and state Ki for Ac-RYYRWKKKKKKK-NH2 (also: trifluoroacetate salt, Synthetic peptide conjugate; the primary product is the trifluoroacetate salt; also called Compound I) [Compound 1 Ac-Arg-Tyr-Tyr-Arg-Trp-Lys-Lys-Lys-Lys-Lys-Lys-Lys-NH2]
Reply: 0.26 nM
